Target: T1, Recombinant hIL-36R protein (Acrobio, Cat #IL2-H52H6) (human, UniProt Q9HB29 20-335)
T1 construct: Bought soluble protein; also called recombinant human IL-36R protein
T1 sequence: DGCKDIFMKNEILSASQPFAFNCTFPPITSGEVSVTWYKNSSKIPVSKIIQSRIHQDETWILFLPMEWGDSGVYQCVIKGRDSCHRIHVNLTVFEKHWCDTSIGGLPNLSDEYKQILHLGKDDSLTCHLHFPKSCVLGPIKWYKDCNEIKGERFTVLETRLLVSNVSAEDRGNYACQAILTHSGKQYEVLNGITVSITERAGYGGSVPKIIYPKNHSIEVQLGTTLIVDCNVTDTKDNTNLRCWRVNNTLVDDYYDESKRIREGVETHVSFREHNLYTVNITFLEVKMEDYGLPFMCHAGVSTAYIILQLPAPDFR
Experiment: BLI (Gator), antibody on Protein A sensor, hIL-36R analyte; stands under the head koff(1/Ms), read as kon from KD = koff/kon
READOUT_LABEL: kon (M⁻¹ s⁻¹)
Numbers only here, please. The scale is M⁻¹ s⁻¹.

BINDER: 1C11 (antibody, V domains shown, Mouse variable regions, recombinantly expressed) VH: EVQVQQSGTELVKPGASVKLSCKASGYTFTNYWLHWVKQRPGQGLEWIGNINPSNGGTNYNEKFKTKATLTVDKSSSTAYMQLSSLTSEDSAVYYCARYSTGFAYWGQGTLVTVSA VL: DIVLTQTTASLAVSLGQRATISCRASESVDTYGASFMHWYQQKPGQPPKLLIYRASNLESGIPARFSGSGSRTDFTLTVNPVEADDVATYYCQQSNEDPRTFGGGTKLEIK
kon [M⁻¹ s⁻¹]: 63800

Prompt line: Looking for the measured kon of 10F6 (antibody, V domains shown, Mouse variable regions, recombinantly expressed) VH: QVQLQQSGAELVKPGASVRLSCKASGYTFTEFTIHWVKQRSGQGLEWIGWFYPGSDFIKYNEKFKDKATLTADKSSNTVYMELLRLTSEDSAVYFCARHEDRLSDYSYEWYFDVWGAGTAVTVSS VL: DIQMTQSPASLSASVGETVTITCRASENIDSYLAWYQQKQGKSPQLLVYGATLLADGVPSRFSGSGSGTQYSLKINSLQSEDVAEYFCQHYYSIPLTFGAGTKLELK , can you help?
Response line: 152000

Prompt line: Looking for the measured kon of 1A21 (antibody, V domains shown, Mouse variable regions, recombinantly expressed) VH: EVQLQQSGPELVKPGDSVKISCKASGYSFTGYFMNWVMQSHGKSLEWIGRINPYNGDTFYNQKFKGKATLTVDKSSSTAHMELRSLTSEDSAVYYCAGLGHWYFDVWGTGTTVTVSS VL: DIVMTQSTLSLPVSLGDQASISCRSSQSIVHSNGNTYLEWYLQKPGQSPKLLIYKVSNRFSGVPDRFSGSGSGTDFTLKISRVEAEDLGVYYCFQGSHVPWTFGGGTKLEIK , can you help?
Response line: 74900

Prompt line: Looking for the measured kon of 9C12 (antibody, V domains shown, Mouse variable regions, recombinantly expressed) VH: EVQLQQSGPELVKPGASVKMSCKASGYTFTDYHMNWVKRSPGKSLEWIGRINPDYGDARYDQKFKGKATLTVDKSLSTAYMQLNRLTYEDSAVYYCARDGYYVFDYWGQGSTLTVSS VL: DIVMTQAAFSNPVSLGTSASISCRSSKSLLHSDGITYLSWYLQRPGQSPQLLIYRMSNLVSGVPDRFSGSGSGTDFTLRISRVEAEDVGVYYCAQTLEFPLTFGAGTKLELK , can you help?
Response line: 79400

Prompt line: Looking for the measured kon of 1J3 (antibody, V domains shown, Mouse variable regions, recombinantly expressed) VH: QVQLEQSGGDLVKPGGSLKLSCAASGFTFSSYGMSWVRQTPDKRLEWVATISSYGSYTSYPDTVKGRFTISRDNAKNTLYLQMSSLKSEDTAMYYCARPDYYVSTGFDYWGQGTTLTVSS VL: DIVITQSTATLSVTPGDRVSLSCRASQSISDYLHWYQQKSHESPRLLIKYASQSISGIPSRFSGSGSGSDFTLSINSVEPEDVGVYYCQNGHSFPFTFGSGTKLEIK , can you help?
Response line: 73200

Prompt line: Looking for the measured kon of 9H11 (antibody, V domains shown, Mouse variable regions, recombinantly expressed) VH: QVQLQQSGPELVKPGASVKISCKASGYAFSHSWMNWVKQRPGKGLEWIGWIHLGDGDTYYNGKFKGKATLTADKSSSTAYMQLSSLTSEDSAVYFCARSDGNYVPYAMDYWGQGTSVTVSS VL: DIVITQTTSSLSASLGDRVTISCRASQDISNYLSWYQQKPDGTVKLLIYYTSRLHSGVPSRFSGSGSGTDYSLTISSLEQEDIATYFCQQDSEHPWTFGGGTELDVR , can you help?
Response line: 91700
